Give CD28 scFv signal in presence of CD28 for every item shown.
# target: Anti-CD28 scFv (VH - linker 1 - VL) (biotinylated (site not given))
# Sequence (scFv, as listed by the source): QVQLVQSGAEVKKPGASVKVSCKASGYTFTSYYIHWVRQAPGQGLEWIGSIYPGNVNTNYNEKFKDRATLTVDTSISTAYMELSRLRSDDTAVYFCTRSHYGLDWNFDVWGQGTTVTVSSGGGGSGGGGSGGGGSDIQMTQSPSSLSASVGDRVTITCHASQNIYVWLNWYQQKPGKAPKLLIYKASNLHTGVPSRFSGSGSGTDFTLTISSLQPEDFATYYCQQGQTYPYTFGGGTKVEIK
# protocol.notes: phage binding ELISA on anti-CD28 scFv plate; wells pre-incubated with soluble CD28 as competitor;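 note: clonal phage supernatants tested, bound phage read out with an HRP-linked anti-M13 antibody, reference wells received blocking buffer lacking CD28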
Where no end group is shown, it is not given here.
Please respond with just the number, no unit label.

Ask: Return the recorded CD28 scFv signal in presence of CD28 value; entry: MDWCPRHLWSVCFN (cysteine pairing not given here; also: fused to phage pIII, linker and fusion site not given here, Clonal phage of the Peptide-9 library, tested as crude phage supernatant; not shown: pIII of the bacteriophage) [Phage-255]
Reply: 0.825

Ask: Respond only with CD28 scFv signal in presence of CD28 recorded for MDWCPRDFWAFCFF (cysteine pairing not given here; also: displayed on phage as fusion to pIII, fusion limits and linker not given here, Clonal phage of the Peptide-9 library, tested as crude phage supernatant; not shown: pIII of the bacteriophage) [Phage-270]
Reply: 0.655

Ask: Return reported CD28 scFv signal in presence of CD28. Input binder: MDWCPRFMWSECFS (cysteine pairing not given here; also: fused to phage pIII, linker and fusion site not given here, Clonal phage of the Peptide-9 library, tested as crude phage supernatant; not shown: pIII of the bacteriophage) [Phage-251]
Reply: 0.137

Ask: For the binder DSFCTWSAWQECGR (cysteine pairing not given here; also: phage-displayed pIII fusion, pIII and linker not given here, Clonal phage of the Peptide-9 library, tested as crude phage supernatant; not shown: pIII of the bacteriophage) [Phage-269] , report CD28 scFv signal in presence of CD28.
Reply: 0.101

Ask: State its CD28 scFv signal in presence of CD28 for this binder: MDWCPRDHWVDCYS (cysteine pairing not given here; also: displayed on phage as fusion to pIII, fusion limits and linker not given here, Clonal phage of the Peptide-9 library, tested as crude phage supernatant; not shown: pIII of the bacteriophage) [Phage-275]
Reply: 0.092

Ask: Output CD28 scFv signal in presence of CD28 of IDWCPKIHWDLCYF (cysteine pairing not given here; also: displayed on phage as fusion to pIII, fusion limits and linker not given here, Clonal phage of the Peptide-9 library, tested as crude phage supernatant; not shown: pIII of the bacteriophage) [Phage-276]
Reply: 0.082

Ask: Please look at this binder and report its CD28 scFv signal in presence of CD28: MTLCLSVDLVHCWY (cysteine pairing not given here; also: displayed on bacteriophage as fusion to pIII, fusion limits and linker not given here, Clonal phage of the Peptide-9 library, tested as crude phage supernatant; not shown: pIII of the bacteriophage) [Phage-267]
Reply: 0.093

Ask: Quickly give me recorded CD28 scFv signal in presence of CD28 for WVSCLRHHWLECFH (cysteine pairing not given here; also: displayed on phage as fusion to pIII, fusion limits and linker not given here, Clonal phage of the Peptide-9 library, tested as crude phage supernatant; not shown: pIII of the bacteriophage) [Phage-274]
Reply: 0.858

Ask: Please list CD28 scFv signal in presence of CD28 recorded for the binder MVWCMSVGWAVCLN (cysteine pairing not given here; also: displayed on phage as fusion to pIII, fusion limits and linker not given here, Clonal phage of the Peptide-9 library, tested as crude phage supernatant; not shown: pIII of the bacteriophage) [Phage-272]
Reply: 0.284
